Please go through the items and note down their Kd.
Molecular target: feline FcRn complex (FcRn-α subunit and β-microglobulin) (feline)
Assay: SPR (Biacore), FcRn on SA chip, pH 7.4
Report the figure along with its unit, number first.

Qu. Query: Kd; subject: feline IgG1a mutant ID No. 342: S252Y, S428M, S434F, D312P (antibody, part only; not given: Variable domains, not shown: another chain or arm of the molecule; small tags and cut ends) constant: ASTTAPSVFPLAPSCGTTSGATVALACLVLGYFPEPVTVSWNSGALTSGVHTFPAVLQASGLYSLSSMVTVPSSRWLSDTFTCNVAHPPSNTKVDKTVRKTDHPPGPKPCDCPKCPPPEMLGGPSIFIFPPKPKDTLYISRTPEVTCLVVDLGPDDSDVQITWFVDNTQVYTAKTSPREEQFNSTYRVVSVLPILHQPWLKGKEFKCKVNSKSLPSPIERTISKAKGQPHEPQVYVLPPAQEELSRNKVSVTCLIKSFHPPDIAVEWEITGQPEPENNYRTTPPQLDSDGTYFVYSKLSVDRSHWQRGNTYTCSVMHEALHFHHTQKSLTQSPGK
Ans. 3.29 nM

Qu. Give its Kd value. Item: feline IgG1a mutant ID No. 376: S252Y, S434R, T250Q (antibody, part only; not given: Variable domains, not shown: another chain or arm of the molecule) constant: ASTTAPSVFPLAPSCGTTSGATVALACLVLGYFPEPVTVSWNSGALTSGVHTFPAVLQASGLYSLSSMVTVPSSRWLSDTFTCNVAHPPSNTKVDKTVRKTDHPPGPKPCDCPKCPPPEMLGGPSIFIFPPKPKDQLYISRTPEVTCLVVDLGPDDSDVQITWFVDNTQVYTAKTSPREEQFNSTYRVVSVLPILHQDWLKGKEFKCKVNSKSLPSPIERTISKAKGQPHEPQVYVLPPAQEELSRNKVSVTCLIKSFHPPDIAVEWEITGQPEPENNYRTTPPQLDSDGTYFVYSKLSVDRSHWQRGNTYTCSVSHEALHRHHTQKSLTQSPGK
Ans. 24.6 nM

Qu. Consider the binder shown here: feline IgG1a mutant ID No. 293: S252Y, S428Y, Q311W, D312P, S434Y (antibody, part only; not given: Variable domains, not shown: another chain or arm of the molecule; small tags and cut ends) constant: ASTTAPSVFPLAPSCGTTSGATVALACLVLGYFPEPVTVSWNSGALTSGVHTFPAVLQASGLYSLSSMVTVPSSRWLSDTFTCNVAHPPSNTKVDKTVRKTDHPPGPKPCDCPKCPPPEMLGGPSIFIFPPKPKDTLYISRTPEVTCLVVDLGPDDSDVQITWFVDNTQVYTAKTSPREEQFNSTYRVVSVLPILHWPWLKGKEFKCKVNSKSLPSPIERTISKAKGQPHEPQVYVLPPAQEELSRNKVSVTCLIKSFHPPDIAVEWEITGQPEPENNYRTTPPQLDSDGTYFVYSKLSVDRSHWQRGNTYTCSVYHEALHYHHTQKSLTQSPGK What is its recorded Kd?
Ans. 2930 nM

Qu. What value of Kd has been recorded for this entry: feline IgG1a mutant ID No. 246: S252Y, S428M, S434W (antibody, part only; not given: Variable domains, not shown: another chain or arm of the molecule) constant: ASTTAPSVFPLAPSCGTTSGATVALACLVLGYFPEPVTVSWNSGALTSGVHTFPAVLQASGLYSLSSMVTVPSSRWLSDTFTCNVAHPPSNTKVDKTVRKTDHPPGPKPCDCPKCPPPEMLGGPSIFIFPPKPKDTLYISRTPEVTCLVVDLGPDDSDVQITWFVDNTQVYTAKTSPREEQFNSTYRVVSVLPILHQDWLKGKEFKCKVNSKSLPSPIERTISKAKGQPHEPQVYVLPPAQEELSRNKVSVTCLIKSFHPPDIAVEWEITGQPEPENNYRTTPPQLDSDGTYFVYSKLSVDRSHWQRGNTYTCSVMHEALHWHHTQKSLTQSPGK
Ans. 7.91 nM
